target: LIPA; assay: pooled miR-30 sensor sort-seq; sequence = guide strand; settings: shRNA; note: reference of the scale not given here
MEASUREMENT_TYPE: sensor-assay potency score (higher = more potent)

- CHAIN_SEQUENCE: "TTAACCATTAACAAGCATTGTA"
  VALUE: 0.00545
- CHAIN_SEQUENCE: "TTAACAAGCATTGTACTGTTAG"
  VALUE: -0.745
- CHAIN_SEQUENCE: "TTACAAAGTAGTATTCGCCCTG"
  VALUE: 0.166
- CHAIN_SEQUENCE: "TATATCCATCTTCTGTCTCAAC"
  VALUE: -1.24
- CHAIN_SEQUENCE: "TTGACGTCGTAGACATCTGCAA"
  VALUE: -0.272
- CHAIN_SEQUENCE: "ATCTTCTGTCTCAACTAGGTAT"
  VALUE: -0.881
- CHAIN_SEQUENCE: "TATGACATGAGTGCAAACGTGG"
  VALUE: -0.073
- CHAIN_SEQUENCE: "TTTGTCTCCAAATAAGTCCTTA"
  VALUE: -0.0541
- CHAIN_SEQUENCE: "TATTGTAAGGAAATGATGCTGC"
  VALUE: 0.625
- CHAIN_SEQUENCE: "TTGACTATGCACCTGCTGCAGG"
  VALUE: -0.688
